Attribution: ChEMBL document CHEMBL1126054

- method: Displacement of [3H]GABA from gamma-aminobutyric-acid A (GABA-A) receptor
- Set-up: species or system Rattus norvegicus
metricName: IC50
Returns: string containing the numeric result and its unit.

Need IC50, item O=C1C=C2C=C[C@@H]3C[C@@]2(O1)[C@H]1CCCCN31
50 µM

* * *

- systemName: GABA-A receptor; anion channel
- method: Displacement of [3H]GABA from gamma-aminobutyric-acid A (GABA-A) receptor
- Format: protein-complex assay, Rattus norvegicus
Task for the reader: assign each of the following compounds its reported IC50.
Respond numerically; units are µM and should not be typed.

Need IC50, item COc1cc2c3cc1Oc1cc(ccc1O)C[C@@H]1c4c(cc(OC)c(O)c4Oc4ccc(cc4)C[C@@H]3N(C)CC2)CC[N+]1(C)C
58

Let us now turn to Oc1onc2c1CCNCC2
16

Let us now turn to CC12CC(=O)C3C(CCC4CC(O)CCC43C)C1CC(=N)N2 (stereo not drawn)
0.02
